List of koff values.
biological target: human CD3 ed (human, UniProt P07766 23-126; P04234 22-105, limits assumed); assay: SPR Biacore T200, IgG captured on protein A, 25 C;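 also: antigens diluted in ACES running buffer at pH 7.4 were flowed over antibodies held on a CM3 chip bearing amine-coupled protein A, with buffer alone serving as blank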
Sequence (P07766 23-126 limits assumed, chain 1 of 2): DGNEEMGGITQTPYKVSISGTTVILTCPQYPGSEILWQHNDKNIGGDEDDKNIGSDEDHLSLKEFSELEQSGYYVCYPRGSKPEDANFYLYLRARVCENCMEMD
Sequence (P04234 22-105 limits assumed, chain 2 of 2): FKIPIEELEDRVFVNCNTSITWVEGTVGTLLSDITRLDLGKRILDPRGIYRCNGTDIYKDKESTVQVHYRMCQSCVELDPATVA
Write down the numeric answer in s⁻¹ and omit the unit.

binder | koff / s⁻¹
dBBDu189/L126 (antibody, V domains shown, IgG format; constant regions not specified) VH: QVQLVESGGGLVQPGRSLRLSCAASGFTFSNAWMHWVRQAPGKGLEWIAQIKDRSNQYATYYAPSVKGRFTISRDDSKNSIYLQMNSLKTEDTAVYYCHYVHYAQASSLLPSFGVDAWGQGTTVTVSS VL: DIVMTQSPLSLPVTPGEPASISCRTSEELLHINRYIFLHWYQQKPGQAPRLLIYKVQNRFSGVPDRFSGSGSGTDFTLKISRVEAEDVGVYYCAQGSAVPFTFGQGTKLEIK | 0.0281

Okay, now this binder:
Return koff (reported value) for this binder: dBBDu186/L106 (antibody, V domains shown, IgG format; constant regions not specified) VH: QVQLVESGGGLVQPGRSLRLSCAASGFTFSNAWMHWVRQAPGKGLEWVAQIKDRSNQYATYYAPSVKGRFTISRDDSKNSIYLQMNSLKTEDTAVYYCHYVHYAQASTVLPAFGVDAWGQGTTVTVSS VL: DIVMTQSPLSLPVTPGEPASISCSTSEELLHINRFIFLHWYQQKPGQAPRLLIYKVANRFMGVPDRFSGSGSGTDFTLKISRVEAEDVGVYYCAQGSQVPFTFGQGTKLEIK
0.0318
